# inhibition at 10 µM listing for each entry below
target: human B1R (Homo sapiens, UniProt P46663); construct: expressed in transfected cells; host or cells: CHO K1 cells; assay: Functional investigation on the bradykinin 1 receptor (B1R), cell-based fluorescent calcium-mobilization assay (FLIPR/Novostar), human; conditions: 10 μM test substance; CHO K1 cells stably transfected with human B1R gene; agonist Lys-Des-Arg9-bradykinin at EC80; % inhibition compared with maximum achievable inhibition; read-out: B1R antagonism, human [10 μM] % inhibition
Sequence (P46663 whole entry): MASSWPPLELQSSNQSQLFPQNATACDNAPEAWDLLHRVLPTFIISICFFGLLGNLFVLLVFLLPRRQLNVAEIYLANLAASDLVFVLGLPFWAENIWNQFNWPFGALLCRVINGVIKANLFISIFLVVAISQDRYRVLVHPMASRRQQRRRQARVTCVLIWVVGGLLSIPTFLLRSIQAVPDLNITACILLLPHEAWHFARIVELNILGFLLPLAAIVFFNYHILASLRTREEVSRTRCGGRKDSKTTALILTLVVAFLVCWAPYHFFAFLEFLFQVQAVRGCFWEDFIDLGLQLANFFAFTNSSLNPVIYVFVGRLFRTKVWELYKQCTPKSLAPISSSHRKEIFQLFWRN
// note: answer is a bare numeric in %

In [3]: df
Out[3]:
                                   compound  experimental_result
0  COc1cc(C)c(S(=O)(=O)N2CCCCC2COCC(=O)N2CCC(CNC(C)=O)(N3CCN(C)CC3)CC2)c(C)c1 (stereo not drawn)                  103

Ask | Query: inhibition at 10 µM; subject: CN1CCN(C2(CNC(=O)c3ccncc3)CCN(C(=O)CC(NS(=O)(=O)c3ccc4ccccc4c3)c3ccccc3)CC2)CC1 (stereo not drawn)
Reply | 46

Ask | Now the compound CC(=O)NCC1(N2CCN(c3ccncc3)CC2)CCN(C(=O)CCC2CCCCN2S(=O)(=O)c2cc(C)c(Cl)cc2C)CC1 (stereo not drawn)
Reply | 102

Ask | Now the compound "COc1cc(C)c(S(=O)(=O)N(C)CCOCC(=O)N2CCC(CNC(=O)c3ccccn3)(N3CCN(C)CC3)CC2)c(C)c1"
Reply | 103

Ask | Now the compound COc1cc(C)c(S(=O)(=O)N2CCCCC2COCC(=O)N2CCC(CNC(=O)c3ccccc3)(N3CCN(C)CC3)CC2)c(C)c1 (stereo not drawn)
Reply | 102

Ask | Now the compound CC(=O)NCC1(N2CCN(c3ccncc3)CC2)CCN(C(=O)COCC2CCc3ccccc3N2S(=O)(=O)c2ccc(Cl)c(Cl)c2)CC1 (stereo not drawn)
Reply | 104

====

target: B1R of rats (Rattus norvegicus); construct: expressed in transfected cells; host or cells: CHO K1 cells; assay: Functional investigation on the bradykinin 1 receptor (B1R), cell-based fluorescent calcium-mobilization assay (FLIPR/Novostar), rat; settings: 10 μM test substance; CHO K1 cells stably transfected with rat B1R gene; agonist Des-Arg9-bradykinin at EC80; % inhibition compared with maximum achievable inhibition; read-out: B1R antagonism, rat [10 μM] % inhibition
Sequence (P97583 whole entry): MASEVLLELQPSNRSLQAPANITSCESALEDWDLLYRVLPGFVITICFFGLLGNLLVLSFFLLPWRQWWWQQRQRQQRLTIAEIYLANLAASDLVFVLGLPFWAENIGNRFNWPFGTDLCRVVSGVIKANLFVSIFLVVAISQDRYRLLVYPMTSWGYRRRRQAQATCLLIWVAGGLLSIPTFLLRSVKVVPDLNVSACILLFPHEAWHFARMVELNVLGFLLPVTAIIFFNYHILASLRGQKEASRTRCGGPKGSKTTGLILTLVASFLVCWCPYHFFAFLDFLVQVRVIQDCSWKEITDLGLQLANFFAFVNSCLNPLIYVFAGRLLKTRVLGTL
# inhibition at 10 µM listing for each entry below
// note: answer is a bare numeric in %

Look over these answered cases.
>>> df
                                   molecule                     assay_system     measurement_type  experimental_result
0  CN1CCN(C2(CNC(=O)c3ccncc3)CCN(C(=O)CCCN(C)S(=O)(=O)c3cccc(C(F)(F)F)c3)CC2)CC1  B1R of rats (Rattus norvegicus)  inhibition at 10 µM                   66
1  COc1cc(C)c(S(=O)(=O)N2CCCCC2COCC(=O)N2CCC(CNC(=O)c3ccccc3)(N3CCN(C)CC3)CC2)c(C)c1 (stereo not drawn)  B1R of rats (Rattus norvegicus)  inhibition at 10 µM                  104
2  COc1cc(C)c(S(=O)(=O)N2CCCCC2COCC(=O)N2CCC(CNC(C)=O)(N3CCN(C)CC3)CC2)c(C)c1 (stereo not drawn)  B1R of rats (Rattus norvegicus)  inhibition at 10 µM                  102
3  COc1cc(C)c(S(=O)(=O)N2CCCCC2COCC(=O)N2CCC(CNC(=O)c3ccncc3)(N3CCN(C)CC3)CC2)c(C)c1 (stereo not drawn)  B1R of rats (Rattus norvegicus)  inhibition at 10 µM                  102

Ask | Query: inhibition at 10 µM; subject: CN1CCN(C2(CNC(=O)c3ccccc3)CCN(C(=O)CC(NS(=O)(=O)c3ccc4ccccc4c3)c3ccccc3)CC2)CC1 (stereo not drawn)
Reply | 31

Ask | Now the molecule "COc1cc(C)c(S(=O)(=O)N(C)CCOCC(=O)N2CCC(CNC(=O)Cc3ccccc3)(N3CCN(C)CC3)CC2)c(C)c1"
Reply | 101

Ask | Now the molecule COc1cc(C)c(S(=O)(=O)N2CCCCC2COCC(=O)N2CCC(CNC(=O)Cc3ccccc3)(N3CCN(C)CC3)CC2)c(C)c1 (stereo not drawn)
Reply | 104

====

molecular target: human B1R (Homo sapiens); construct: expressed in transfected cells; host or cells: CHO K1 cells; test: Functional investigation on the bradykinin 1 receptor (B1R), cell-based fluorescent calcium-mobilization assay (FLIPR/Novostar), human; settings: 10 μM test substance; CHO K1 cells stably transfected with human B1R gene; agonist Lys-Des-Arg9-bradykinin at EC80; % inhibition compared with maximum achievable inhibition; read-out: B1R antagonism, human [10 μM] % inhibition
measurement_type: inhibition at 10 µM (%)
// note: answer is a bare numeric in %

In [3]: df
Out[3]:
                                   molecule     measurement_type  experimental_result
0  COc1cc(C)c(S(=O)(=O)N2CCCCC2COCC(=O)N2CCC(CNC(=O)Cc3ccccc3)(N3CCN(C)CC3)CC2)c(C)c1 (stereo not drawn) [Example 3]  inhibition at 10 µM                  103
1  COc1cc(C)c(S(=O)(=O)N2c3ccccc3C[C@H]2COCC(=O)N2CCC(CNC(=O)c3ccncc3)(N3CCN(C4CC4)CC3)CC2)c(C)c1 [Example 45]  inhibition at 10 µM                  100
2  O=C(NCC1(N2CCN(C3CC3)CC2)CCN(C(=O)COCCN(C2CC2)S(=O)(=O)c2ccccc2C(F)(F)F)CC1)c1ccncc1 [Example 47]  inhibition at 10 µM                  100
3  Cc1cc(S(=O)(=O)N2CCCCC2CCC(=O)N2CCC(CNC(=O)c3cccnc3)(N3CCN(C)CC3)CC2)c(C)cc1Cl (stereo not drawn) [Example 33]  inhibition at 10 µM                  103
4  CN1CCN(C2(CNC(=O)c3ccncc3)CCN(C(=O)CC3CCCCN3S(=O)(=O)c3cccc(C(F)(F)F)c3)CC2)CC1 (stereo not drawn) [Example 29]  inhibition at 10 µM                   67

Could you now look at the following molecule, please?
Ask | Query: inhibition at 10 µM; subject: CN1CCN(C2(CNC(=O)c3cccnc3)CCN(C(=O)COCC3CCc4ccccc4N3S(=O)(=O)c3ccc(Cl)c(Cl)c3)CC2)CC1 (stereo not drawn) [Example 40]
Reply | 49

====

# inhibition at 10 µM listing for each entry below
molecular target: human B1R (Homo sapiens, UniProt P46663); construct: expressed in transfected cells; host or cells: CHO K1 cells; assay: Functional investigation on the bradykinin 1 receptor (B1R), cell-based fluorescent calcium-mobilization assay (FLIPR/Novostar), human; conditions: 10 μM test substance; CHO K1 cells stably transfected with human B1R gene; agonist Lys-Des-Arg9-bradykinin at EC80; % inhibition compared with maximum achievable inhibition; read-out: B1R antagonism, human [10 μM] % inhibition
// note: answer is a bare numeric in %

Look over these answered cases.
>>> print(df.to_string())
                                   compound  experimental_result
0  Cc1cc(S(=O)(=O)N2CCCCC2CCC(=O)N2CCC(CNC(=O)c3ccncc3)(N3CCN(C)CC3)CC2)c(C)cc1Cl (stereo not shown) [Example 26]                  103
1  COc1cc(C)c(S(=O)(=O)N(CCOCC(=O)N2CCC(CNC(C)=O)(N3CCN(c4ccncc4)CC3)CC2)C2CC2)c(C)c1 [Example 46]                  100
2  CN1CCN(C2(CNC(=O)Cc3ccccc3)CCN(C(=O)COCC3CCc4ccccc4N3S(=O)(=O)c3ccc(Cl)c(Cl)c3)CC2)CC1 (stereo not shown) [Example 13]                  104

Could you now look at the following compound, please?
Ask | Query: inhibition at 10 µM; subject: CN1CCN(C2(CNC(=O)c3ccccc3)CCN(C(=O)CC(NS(=O)(=O)c3ccc4ccccc4c3)c3ccccc3)CC2)CC1 (stereo not shown) [Example 16]
Reply | 94

====

molecular target: human B1R (Homo sapiens); construct: expressed in transfected cells; host or cells: CHO K1 cells; test: Functional investigation on the bradykinin 1 receptor (B1R), cell-based fluorescent calcium-mobilization assay (FLIPR/Novostar), human; settings: 10 μM test substance; CHO K1 cells stably transfected with human B1R gene; agonist Lys-Des-Arg9-bradykinin at EC80; % inhibition compared with maximum achievable inhibition; read-out: B1R antagonism, human [10 μM] % inhibition
# inhibition at 10 µM listing for each entry below
// note: answer is a bare numeric in %

In [3]: df
Out[3]:
                                   compound              assay_system  value_unit  experimental_result
0  COc1cc(C)c(S(=O)(=O)N2c3ccccc3OCC2COCC(=O)N2CCC(CNC(=O)c3ccncc3)(N3CCN(C)CC3)CC2)c(C)c1 (stereo not shown) [Example 49]  human B1R (Homo sapiens)           %                  100
1  CN1CCN(C2(CNC(=O)c3ccccn3)CCN(C(=O)CC3CCCCN3S(=O)(=O)c3cccc(C(F)(F)F)c3)CC2)CC1 (stereo not shown) [Example 18]  human B1R (Homo sapiens)           %                   97

Ask | Query: inhibition at 10 µM; subject: CN1CCN(C2(CNC(=O)Cc3ccccc3)CCN(C(=O)CC(NS(=O)(=O)c3ccc4ccccc4c3)c3ccccc3)CC2)CC1 (stereo not shown) [Example 8]
Reply | 75

Ask | Now the compound COc1cc(C)c(S(=O)(=O)N(CCOCC(=O)N2CCC(CNC(=O)c3ccncc3)(N3CCN(C4CC4)CC3)CC2)C2CC2)c(C)c1 [Example 44]
Reply | 100

Sourced from patent US8541573B2
